Value source: PubChem BioAssay

# composite z-score values compiled below
Tested on: XIP peptide (Xip251-270) binding
METHOD NOTES: XIP fragment 251-270 binding compounds – biochemical, small-molecule microarray, fluorescence 635/667 nm, 0.1 µg/mL protein, primary screen (AID 1182)
ASSAY CONTEXT: fluorescent protein binding, 635 nm, higher = more signal, called active from +8 up or from −8 down
Calls of active or inactive are those of the source.
MEASURED QUANTITY: composite z-score

• COC(=O)c1c2oc(c1C(=O)OC)C(=O)N[C@@H](C(C)C)Cn1cc(nn1)C1(CCCCC1)NC(=O)N[C@H](CO)CC2 = 0.0023 (inactive)
• Cc1ccc(S[C@]2(C(=O)NCC(C)C)CC(=O)N(Cc3cc(C(F)(F)F)cc(C(F)(F)F)c3)[C@@H]2c2ccc(CO)cc2)cc1 = -0.0537 (inactive)
• CC[C@@H]1C=C(C(=O)O)[C@H](c2cccc3ccccc23)N1S(=O)(=O)c1ccc(C)cc1 = 0.406 (inactive)
• O=C(NC1CC1)[C@@H]1c2ccccc2C(=O)N(Cc2cc(F)cc(C(F)(F)F)c2)[C@H]1c1ccc(CO)cc1 = -0.414 (inactive)
• CCCCCN1CC=CC23O[C@@H]4C=CCOC(=O)[C@@H]4[C@H]2C(=O)N(C(C)CO)[C@@H]3C1=O (stereo not given in full) = 0.379 (inactive)
• O=C1OCCC=C[C@H]2OC34C=CCN(c5ccc(Cl)cc5)C(=O)[C@H]3N(CCCO)C(=O)[C@@H]4C12 (stereo not given in full) = -0.869 (inactive)
• [N-]=[N+]=NCc1ccccc1[C@H]1OC(c2ccc(OCCCO)cc2)=N[C@@]1(Cc1ccccc1)C(=O)N1CCCCC1 = -0.178 (inactive)
• COc1ccc([Si](C)(C)[C@@H]2[C@@H](CCO)O[C@]3(C(=O)N(Cc4cccc(N5CCOC5=O)c4)c4ccccc43)[C@H]2C)cc1 = 0.473 (inactive)
• COc1ccc([Si](C)(C)[C@@H]2[C@@H](CCn3cc(CCO)nn3)O[C@]3(C(=O)N(Cc4cccc(N5C(=O)c6cccc7cccc5c67)c4)c4ccccc43)[C@H]2C)cc1 = 1.49 (inactive)
• NC(=O)[C@@H]1[C@H]2C(=O)O[C@H](c3ccccc3)[C@H](c3ccccc3)N2[C@H](c2ccc(O)cc2)[C@@]12C(=O)Nc1ccc(C#CC3=CCCCC3)cc12 = 0.799 (inactive)
• CN1C(=O)C2C=CC(C(O)c3ccccc3)N(N3CCCCC3)C2C1=O (stereo not given) = 0.344 (inactive)
• NC(=O)N1C(=O)C2C(C1=O)C1C=C(CCCO)C2C(C2CC2)N1Cc1cc2c(cc1Br)OCO2 (stereo not given) = -0.0845 (inactive)
• CN1C(=O)C2C=CC(C(O)c3ccc(F)cc3)N(N(c3ccccc3)c3ccccc3)C2C1=O (stereo not given) = -0.0116 (inactive)
• COCCOC(=O)N1C(=O)[C@@]2(c3ccccc31)[C@H](C(N)=O)[C@H]1C(=O)O[C@H](c3ccccc3)[C@H](c3ccccc3)N1[C@@H]2c1ccc(O)cc1 = -0.114 (inactive)
• C=CCC(OC(C)=O)[C@@H]1[C@@H](N(Cc2ccc(-c3cccc(C(F)(F)F)c3)o2)C(=O)Cc2ccc(OC)cc2)c2cc(OCCCO)ccc2N1C(=O)c1ccc2ccccc2c1 (stereo not given in full) = 0.397 (inactive)

###

The reader will find reported composite z-score values listed item by item below.
METHOD NOTES: small molecules captured by biotinylated probe aFST – biochemical, small-molecule microarray, fluorescence 635/667, stem cell growth factor project, primary screen (AID 1086);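 further: score merges 667 nm fluorescence with signal-to-noise of each printed compound spot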
ASSAY CONTEXT: higher = more signal
MEASURED QUANTITY: composite z-score

- COc1ccc([Si](C)(C)[C@@H]2[C@@H](CCO)O[C@]3(C(=O)N(Cc4cccc(N5CCOC5=O)c4)c4ccccc43)[C@H]2C)cc1: 0.0855
- Cc1ccc([C@H]2C(C(=O)O)=CCN2S(=O)(=O)c2ccc(C)cc2)cc1: 0.224
- O=C1C[C@@](C(=O)NCc2ccccc2)(c2ccc([N+](=O)[O-])cc2)[C@@H](c2ccc(CO)cc2)N1CC12CC3CC(CC(C3)C1)C2: 0.282
- CCOC(=O)C1=CC[C@@H](c2ccc(C(F)(F)F)cc2)N(S(=O)(=O)c2ccc(C)cc2)[C@H]1c1ccccc1: 1.04

###

Tested on: Neuregulin-1 EGF-like domain
METHOD NOTES: small molecules binding NRG1 EGF domain – biochemical, small-molecule microarray, 635 nm fluorescence, primary screen (AID 1081);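 further: binding of the protein to compounds printed on small-molecule microarray slides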
ASSAY CONTEXT: higher = more signal
Each entry gets criterion not met if its composite z-score stays under 1, and criterion met if its composite z-score is 1 or above.

- CN1C(=O)C2C=CC(C(O)c3c(F)cccc3Cl)N(NC(=O)OC(C)(C)C)C2C1=O (centres undefined): criterion met
- CC(C)[Si](C#C[Si](C(C)C)(C(C)C)C(C)C)(O[C@H](C)c1cn(Cc2ccccc2)nn1)C(C)C: criterion not met
- CCN(CC)c1ccc(N2CC=CC34O[C@@H]5C=CCOC(=O)[C@@H]5[C@H]3C(=O)N(CCCCCCO)[C@@H]4C2=O)cc1 (some centres undefined): criterion met
- COC(=O)C[C@H]1O[C@@H](CCc2ccccc2)[C@@H](C)[C@@H]1[Si](C)(C)c1ccc(OC)cc1: criterion not met
- O=C1O[C@@H](c2ccccc2)[C@@H](c2ccccc2)N2[C@@H](c3ccccc3OCCO)[C@]3(C(=O)Nc4ccccc43)[C@@H](C(=O)O)[C@H]12: criterion met
- O=C(CS)NCCCCCNC(=O)[C@@H]1C[C@@H]2C(=O)NCC(=O)N2[C@@H]1c1ccc(O)cc1: criterion met
- CO[C@H]1O[C@H](CO)[C@@H](OC(=O)Nc2ccccc2-c2ccccc2)[C@H](OC(=O)Nc2ccccc2-c2ccccc2)[C@@H]1OC(=O)Nc1ccccc1-c1ccccc1: criterion met
- O=C1N(CCS(=O)(=O)c2ccccc2)c2ccccc2[C@@H]2OC(c3ccc(OCCCO)cc3)=N[C@]12Cc1ccccc1: criterion met
- [N-]=[N+]=Nc1ccccc1[C@H]1OC(c2ccc(OCCCO)cc2)=N[C@@]1(Cc1ccccc1)C(=O)N1CCOCC1: criterion met
- O=C1O[C@H](c2ccccc2)[C@H](c2ccccc2)N2[C@H]1[C@@H](C(=O)NC[C@H](O)c1ccccc1)[C@]1(C(=O)Nc3ccccc31)[C@H]2c1ccc(O)cc1: criterion met
- C=CCNC(=O)[C@@H]1[C@H]2C(=O)O[C@H](c3ccccc3)[C@H](c3ccccc3)N2[C@H](c2ccc(OCCO)cc2)[C@@]12C(=O)N(C(=O)OCCOC)c1ccc(C#CCC(C(=O)OC)C(=O)OC)cc12: criterion met
- O=C1C2C=CC(C(O)c3c(F)cccc3Cl)N(Nc3ccccc3F)C2C(=O)N1c1ccccc1 (centres undefined): criterion met
- O=C1O[C@H](c2ccccc2)[C@H](c2ccccc2)N2[C@H]1[C@@H](C(=O)NC[C@H](O)c1ccccc1)[C@]1(C(=O)Nc3ccc(C#CC4=CCCCC4)cc31)[C@H]2c1ccccc1OCCO: criterion met
- O=C1O[C@@H](c2ccccc2)[C@@H](c2ccccc2)N2[C@@H](c3ccccc3OCCO)[C@]3(C(=O)Nc4ccc(C#CC5(O)CCCCCC5)cc43)[C@@H](C(=O)N3CCN(c4ncccn4)CC3)[C@H]12: criterion met
- C#CCOc1ccc(C[C@@H](C(=O)OC)N(CC#C)[C@@H](/C=C/C2CC2)[C@H](O)Cc2ccccc2)cc1: criterion not met
- COCCCNC(=O)[C@@H]1c2ccccc2C(=O)N(Cc2ccccc2)[C@H]1c1ccc(CO)cc1: criterion not met
- C=C(CCCC)C(=O)CC[C@H](OC(=O)c1cccnc1)c1ccc(OCCO)cc1: criterion not met
- COc1ccc([C@H]2OC[C@@H]3CCC(=O)N32)cc1: criterion met
- CN1C(=O)C2C=CC(C(O)C=Cc3ccc([N+](=O)[O-])cc3)N(Nc3ccccc3)C2C1=O (centres undefined): criterion met
- CC(C)NC(=O)[C@@H]1c2ccccc2C(=O)N(C(C)C)[C@H]1c1ccc(CO)cc1: criterion met
- CN1CCC(CCCO)=CC1c1cccs1 (centres undefined): criterion not met
- CCOC(=O)C[C@H]1[C@H](OC(=O)c2ccc(C(=O)c3ccccc3)cc2)[C@@H](NC(=O)c2ccccc2)c2cc(OCCCO)ccc2N1C(=O)c1ccccc1: criterion not met
- O=C1OCCC=C[C@H]2OC34C=CCN(Cn5nnc6ccccc65)C(=O)[C@H]3N(CCO)C(=O)[C@@H]4C12 (some centres undefined): criterion met
- C=C(CCCC)/C(=C/C[C@H](OC(C)=O)c1ccc(OCCO)cc1)c1cnc2ccccc2c1: criterion met
- CN(C)C(=O)[C@]1(Cc2ccccc2)N=C(c2ccc(OCCCO)cc2)O[C@@H]1c1ccccc1N=[N+]=[N-]: criterion met
- COC(=O)c1c(CC[C@@H](CO)NC(=O)N[C@H](Cc2ccccc2)Cn2cc(-c3ccccn3)nn2)oc(C(C)=O)c1C(=O)OC: criterion met
- CN(C)CCCC[C@@H]1NC(=O)[C@H]2C[C@@H](C(=O)NCCCCCN)[C@@H](c3cccc(OCCO)c3)N2C1=O: criterion met
- C=CCNC(=O)[C@@H]1[C@H]2C(=O)O[C@H](c3ccccc3)[C@H](c3ccccc3)N2[C@H](c2ccc(OCCO)cc2)[C@@]12C(=O)N(C(=O)OCCOC)c1ccc(C#CCNC(N)=O)cc12: criterion met
